Exercise: state measured DC50 for each of the compounds provided.
biological target: androgen receptor (AR) (Homo sapiens, UniProt P10275, T878A); construct: endogenous in cells; host or cells: LNCaP; experiment: Reduction of androgen receptor (AR) expression levels in LNCaP cells (Western blot, DC50 and Dmax); type: cell-based; settings: 24 h of treatment, 0.01, 0.1, 1 and 10 µM, α-tubulin internal reference
Sequence (P10275 whole entry T878A): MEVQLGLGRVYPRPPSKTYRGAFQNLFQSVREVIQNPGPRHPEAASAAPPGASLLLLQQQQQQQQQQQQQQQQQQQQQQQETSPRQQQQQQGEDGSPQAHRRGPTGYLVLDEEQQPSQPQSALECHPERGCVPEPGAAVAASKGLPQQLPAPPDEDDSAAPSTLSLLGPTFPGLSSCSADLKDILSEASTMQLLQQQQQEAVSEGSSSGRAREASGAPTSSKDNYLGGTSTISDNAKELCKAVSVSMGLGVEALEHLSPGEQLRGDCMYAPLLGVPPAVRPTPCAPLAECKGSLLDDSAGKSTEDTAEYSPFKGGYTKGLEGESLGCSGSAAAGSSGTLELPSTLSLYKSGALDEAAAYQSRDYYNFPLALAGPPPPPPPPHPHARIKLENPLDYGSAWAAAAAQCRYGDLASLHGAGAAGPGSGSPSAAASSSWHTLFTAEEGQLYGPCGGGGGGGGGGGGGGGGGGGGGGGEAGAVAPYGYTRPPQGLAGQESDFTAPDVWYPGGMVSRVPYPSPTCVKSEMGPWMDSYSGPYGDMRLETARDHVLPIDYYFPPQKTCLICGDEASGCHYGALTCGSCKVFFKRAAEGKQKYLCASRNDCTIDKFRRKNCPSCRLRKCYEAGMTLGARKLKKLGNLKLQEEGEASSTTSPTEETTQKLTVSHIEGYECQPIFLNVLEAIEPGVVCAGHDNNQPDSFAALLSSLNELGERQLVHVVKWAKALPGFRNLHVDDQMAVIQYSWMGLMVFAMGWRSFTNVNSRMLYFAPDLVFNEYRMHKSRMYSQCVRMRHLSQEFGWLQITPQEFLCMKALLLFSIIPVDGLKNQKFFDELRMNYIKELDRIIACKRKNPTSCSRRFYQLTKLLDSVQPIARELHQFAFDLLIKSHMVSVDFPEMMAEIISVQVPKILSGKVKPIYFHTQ
Sequence (Q96SW2 whole entry partner): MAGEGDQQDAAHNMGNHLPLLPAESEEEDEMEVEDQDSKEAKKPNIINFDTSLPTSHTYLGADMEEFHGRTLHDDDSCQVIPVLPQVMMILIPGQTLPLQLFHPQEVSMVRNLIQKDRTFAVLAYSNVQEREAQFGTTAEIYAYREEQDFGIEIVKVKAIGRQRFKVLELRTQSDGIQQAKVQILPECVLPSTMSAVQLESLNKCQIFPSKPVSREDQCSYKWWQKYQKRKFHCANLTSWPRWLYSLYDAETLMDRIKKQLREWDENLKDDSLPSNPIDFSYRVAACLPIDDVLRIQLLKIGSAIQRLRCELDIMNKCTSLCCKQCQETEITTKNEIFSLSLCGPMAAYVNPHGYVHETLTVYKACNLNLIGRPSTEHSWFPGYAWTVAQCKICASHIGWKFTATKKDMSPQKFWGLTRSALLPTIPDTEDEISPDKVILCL

q: Which DC50 reading was recorded for the compound N#Cc1ccc(O[C@H]2CC[C@H](NC(=O)c3ccc(N4CCN(CC5CCN(c6ccc(C7CCC(=O)NC7=O)nn6)CC5)CC4)cc3)CC2)cc1Cl (stereo partly drawn) [PRTA-01] ?
a: < 1000 nM

q: Which DC50 reading was recorded for the compound N#Cc1ccc(OC2CCC(NC(=O)c3ccc(N4CCC(CN5CCN(c6ccc(C7CCC(=O)NC7=O)nn6)CC5)CC4)nn3)CC2)cc1Cl (stereo not drawn) [PRTA-02] ?
a: < 1000 nM

q: Which DC50 reading was recorded for the compound Cc1cc(N2CCN(CC3CCN(c4ccc(C(=O)N[C@H]5CC[C@H](Oc6ccc(C#N)c(Cl)c6)CC5)nn4)CC3)CC2)nnc1C1CCC(=O)NC1=O (stereo partly drawn) [PRTA-04] ?
a: 1000 to 10000 nM

q: Which DC50 reading was recorded for the compound N#Cc1ccc(O[C@H]2CC[C@H](NC(=O)c3ccc(N4CCC(n5cc(C#Cc6ccc(C7CCC(=O)NC7=O)nn6)cn5)CC4)cc3)CC2)cc1Cl (stereo partly drawn) [PRTA-06] ?
a: < 1000 nM

q: Which DC50 reading was recorded for the compound N#Cc1ccc(O[C@H]2CC[C@H](NC(=O)c3ccc(N4CCC(CN5CC6(C5)CN(c5ccc(C7CCC(=O)NC7=O)nn5)C6)CC4)cc3)CC2)cc1Cl (stereo partly drawn) [PRTA-05] ?
a: < 1000 nM

q: Which DC50 reading was recorded for the compound N#Cc1ccc(O[C@H]2CC[C@H](NC(=O)c3ccc(N4CCC(CN5CCN(c6ccc(N7CCC(=O)NC7=O)nn6)CC5)CC4)nn3)CC2)cc1Cl [PRTA-03] ?
a: < 1000 nM
